The values you see were collected from patent US5580871A.

Target: Ca^2+ channel (Rattus norvegicus, UniProt P22002)
Construct: rat cardiac microsomes (source of Ca^2+ channels)
Sequence (P22002 whole entry, other chains not shown): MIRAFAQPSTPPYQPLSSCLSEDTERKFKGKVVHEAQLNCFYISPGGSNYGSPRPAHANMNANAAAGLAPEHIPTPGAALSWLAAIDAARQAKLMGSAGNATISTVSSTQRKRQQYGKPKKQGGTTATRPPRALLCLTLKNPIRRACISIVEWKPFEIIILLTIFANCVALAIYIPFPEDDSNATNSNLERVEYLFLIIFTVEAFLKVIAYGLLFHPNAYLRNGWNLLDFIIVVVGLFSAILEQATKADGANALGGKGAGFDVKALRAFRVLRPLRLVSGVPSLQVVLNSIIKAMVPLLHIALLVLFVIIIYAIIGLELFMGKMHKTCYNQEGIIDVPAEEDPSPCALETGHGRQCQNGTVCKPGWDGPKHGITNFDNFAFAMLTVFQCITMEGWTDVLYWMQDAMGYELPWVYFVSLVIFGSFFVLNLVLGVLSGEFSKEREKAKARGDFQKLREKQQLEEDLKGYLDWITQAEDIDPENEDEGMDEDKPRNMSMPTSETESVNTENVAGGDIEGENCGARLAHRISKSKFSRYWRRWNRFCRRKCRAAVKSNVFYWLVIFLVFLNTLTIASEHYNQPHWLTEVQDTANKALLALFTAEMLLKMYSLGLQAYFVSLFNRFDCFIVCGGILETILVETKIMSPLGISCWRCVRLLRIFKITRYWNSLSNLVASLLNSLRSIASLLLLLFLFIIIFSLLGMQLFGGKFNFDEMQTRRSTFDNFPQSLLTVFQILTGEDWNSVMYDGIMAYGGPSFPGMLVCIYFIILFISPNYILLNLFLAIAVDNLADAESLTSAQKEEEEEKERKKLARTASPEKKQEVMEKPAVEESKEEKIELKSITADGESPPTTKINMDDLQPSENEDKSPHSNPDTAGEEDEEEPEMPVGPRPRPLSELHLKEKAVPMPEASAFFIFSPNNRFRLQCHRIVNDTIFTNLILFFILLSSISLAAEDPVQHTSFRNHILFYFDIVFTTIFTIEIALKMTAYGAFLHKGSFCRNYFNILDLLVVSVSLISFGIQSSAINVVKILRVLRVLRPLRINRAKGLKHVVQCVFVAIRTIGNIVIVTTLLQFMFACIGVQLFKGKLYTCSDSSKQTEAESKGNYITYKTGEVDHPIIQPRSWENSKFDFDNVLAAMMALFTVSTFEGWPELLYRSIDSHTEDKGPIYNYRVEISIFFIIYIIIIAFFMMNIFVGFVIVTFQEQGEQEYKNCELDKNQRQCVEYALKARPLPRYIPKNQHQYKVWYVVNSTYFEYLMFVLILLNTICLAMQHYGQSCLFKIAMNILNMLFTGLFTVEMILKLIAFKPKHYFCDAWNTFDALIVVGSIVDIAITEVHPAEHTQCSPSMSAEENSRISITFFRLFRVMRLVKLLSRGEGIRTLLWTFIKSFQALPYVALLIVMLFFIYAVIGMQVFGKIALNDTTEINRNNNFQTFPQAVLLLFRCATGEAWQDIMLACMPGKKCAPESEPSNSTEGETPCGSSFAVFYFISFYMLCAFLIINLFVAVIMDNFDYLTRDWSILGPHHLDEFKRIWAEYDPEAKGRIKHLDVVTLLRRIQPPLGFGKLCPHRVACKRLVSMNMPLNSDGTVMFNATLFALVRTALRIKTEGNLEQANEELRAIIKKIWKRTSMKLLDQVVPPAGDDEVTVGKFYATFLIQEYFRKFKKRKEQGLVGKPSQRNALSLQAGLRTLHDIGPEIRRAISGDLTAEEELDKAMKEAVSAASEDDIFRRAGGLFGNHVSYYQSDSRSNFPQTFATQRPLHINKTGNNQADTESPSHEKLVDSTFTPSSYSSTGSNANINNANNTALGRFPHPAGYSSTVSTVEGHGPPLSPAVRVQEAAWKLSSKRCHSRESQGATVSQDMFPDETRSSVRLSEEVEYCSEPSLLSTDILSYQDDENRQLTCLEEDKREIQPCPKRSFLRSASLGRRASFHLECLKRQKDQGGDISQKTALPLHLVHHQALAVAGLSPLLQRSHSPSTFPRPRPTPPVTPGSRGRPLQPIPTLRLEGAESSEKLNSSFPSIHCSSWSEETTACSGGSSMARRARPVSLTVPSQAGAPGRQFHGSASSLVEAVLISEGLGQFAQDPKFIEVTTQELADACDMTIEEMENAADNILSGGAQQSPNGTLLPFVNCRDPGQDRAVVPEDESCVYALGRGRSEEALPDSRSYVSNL
Sequence (P54290 25-944 partner limits assumed, other chains not shown): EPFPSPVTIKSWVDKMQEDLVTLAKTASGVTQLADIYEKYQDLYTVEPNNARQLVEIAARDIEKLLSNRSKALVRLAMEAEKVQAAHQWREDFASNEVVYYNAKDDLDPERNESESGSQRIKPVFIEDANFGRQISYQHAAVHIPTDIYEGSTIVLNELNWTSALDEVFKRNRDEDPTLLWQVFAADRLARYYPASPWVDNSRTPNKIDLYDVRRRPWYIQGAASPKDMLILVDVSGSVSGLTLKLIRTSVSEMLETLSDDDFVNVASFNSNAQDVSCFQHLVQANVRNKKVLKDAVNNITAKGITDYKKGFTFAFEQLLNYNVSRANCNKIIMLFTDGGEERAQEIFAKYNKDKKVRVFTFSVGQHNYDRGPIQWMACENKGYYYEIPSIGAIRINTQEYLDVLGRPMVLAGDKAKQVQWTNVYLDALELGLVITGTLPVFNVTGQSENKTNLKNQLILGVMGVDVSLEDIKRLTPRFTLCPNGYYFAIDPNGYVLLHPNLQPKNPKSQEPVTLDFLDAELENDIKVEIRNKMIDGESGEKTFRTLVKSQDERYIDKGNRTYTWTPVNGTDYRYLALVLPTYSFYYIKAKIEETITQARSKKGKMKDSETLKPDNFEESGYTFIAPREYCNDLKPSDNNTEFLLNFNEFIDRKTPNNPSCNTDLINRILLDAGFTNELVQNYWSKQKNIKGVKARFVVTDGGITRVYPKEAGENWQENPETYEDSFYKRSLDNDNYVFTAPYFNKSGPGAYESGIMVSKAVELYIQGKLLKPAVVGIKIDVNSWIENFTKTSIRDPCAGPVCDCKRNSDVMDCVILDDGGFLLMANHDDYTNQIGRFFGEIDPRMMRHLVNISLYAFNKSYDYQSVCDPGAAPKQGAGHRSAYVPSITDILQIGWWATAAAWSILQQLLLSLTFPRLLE
Sequence (P54290 945-1091 partner limits assumed, other chains not shown): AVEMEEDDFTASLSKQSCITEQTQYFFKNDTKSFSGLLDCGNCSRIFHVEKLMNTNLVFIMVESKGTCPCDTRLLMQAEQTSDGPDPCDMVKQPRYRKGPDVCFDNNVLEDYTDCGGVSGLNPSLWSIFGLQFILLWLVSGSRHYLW
Assay: [3H]-Nitrendipine binding assay (affinity for calcium channels)
Details: rat cardiac microsomes; 0.5 nM [3H]-nitrendipine, 60 min, 25° C.
metric: IC50 (nM)
Enter your answer as a number in nM; do not include the unit.

Reference set (3 entries):
Entry CC1=C(C(=O)OCCCCN2CCN(c3ncccn3)CC2)C(c2cccs2)C([N+](=O)[O-])=C(C)N1 (stereo not drawn) — recorded IC50 = 1200

So, CC1=C(C(=O)OCCCCN2CCN(c3ncccn3)CC2)C(c2cccnc2)C([N+](=O)[O-])=C(C)N1 (stereo not drawn) ? Its IC50 was 4400

# compound COc1ccccc1N1CCN(CCOC(=O)C2=C(C)NC(C)=C([N+](=O)[O-])C2c2cccn2C)CC1 (stereo not drawn) ; its IC50 = 1100

Next:
Recorded IC50 (compound COC(=O)C1=C(C)NC(C)=C([N+](=O)[O-])C1c1ccccc1OCCCCCN1CCN(c2cnccn2)CC1 (stereo not drawn) ): 1200

response.value for COC(=O)C1=C(C)NC(C)=C([N+](=O)[O-])C1c1ccccc1OCCCCCN1CCN(C(=O)C2COc3ccccc3O2)CC1 (stereo not drawn) (field: IC50) = 950

Per the record, CC1=C(C(=O)OCCCCN2CCN(c3ncccn3)CC2)C(c2ccoc2)C([N+](=O)[O-])=C(C)N1 (stereo not drawn) has IC50 of 2700

Value of measured IC50 for the entry CC1=C(C(=O)OCCCCN2CCN(c3ncccn3)CC2)C(c2cccc3nonc23)C([N+](=O)[O-])=C(C)N1 (stereo not drawn) : 290
